- EXPERIMENTAL SYSTEM: T1, ZFP SBS#235 (synthetic)
- T1 chain: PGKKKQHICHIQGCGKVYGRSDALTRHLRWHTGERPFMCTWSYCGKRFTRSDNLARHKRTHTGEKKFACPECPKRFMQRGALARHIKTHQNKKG
- MEASUREMENT NOTES: EMSA
- CONDITION LABEL: tags: MBP fusion
METRIC NAME: pKd
Interpret pKd as the negative base-10 log of the concentration measured in mol/L.

[ask] May I ask what pKd has been recorded for GTAGAGGTG (dsDNA) DNA 1: GTAGAGGTG DNA 2: CACCTCTAC ?
[reply] 7.10
